This section presents compounds with their documented pIC50 values.
Target: α4β1 (Homo sapiens, UniProt P05556+P13612)
Construct: Ramos Cell Adhesion Assay (α4β1 Mediated Adhesion/VCAM-1); endogenous in cells; host or cells: Ramos cells
Sequence (P13612 34-1032): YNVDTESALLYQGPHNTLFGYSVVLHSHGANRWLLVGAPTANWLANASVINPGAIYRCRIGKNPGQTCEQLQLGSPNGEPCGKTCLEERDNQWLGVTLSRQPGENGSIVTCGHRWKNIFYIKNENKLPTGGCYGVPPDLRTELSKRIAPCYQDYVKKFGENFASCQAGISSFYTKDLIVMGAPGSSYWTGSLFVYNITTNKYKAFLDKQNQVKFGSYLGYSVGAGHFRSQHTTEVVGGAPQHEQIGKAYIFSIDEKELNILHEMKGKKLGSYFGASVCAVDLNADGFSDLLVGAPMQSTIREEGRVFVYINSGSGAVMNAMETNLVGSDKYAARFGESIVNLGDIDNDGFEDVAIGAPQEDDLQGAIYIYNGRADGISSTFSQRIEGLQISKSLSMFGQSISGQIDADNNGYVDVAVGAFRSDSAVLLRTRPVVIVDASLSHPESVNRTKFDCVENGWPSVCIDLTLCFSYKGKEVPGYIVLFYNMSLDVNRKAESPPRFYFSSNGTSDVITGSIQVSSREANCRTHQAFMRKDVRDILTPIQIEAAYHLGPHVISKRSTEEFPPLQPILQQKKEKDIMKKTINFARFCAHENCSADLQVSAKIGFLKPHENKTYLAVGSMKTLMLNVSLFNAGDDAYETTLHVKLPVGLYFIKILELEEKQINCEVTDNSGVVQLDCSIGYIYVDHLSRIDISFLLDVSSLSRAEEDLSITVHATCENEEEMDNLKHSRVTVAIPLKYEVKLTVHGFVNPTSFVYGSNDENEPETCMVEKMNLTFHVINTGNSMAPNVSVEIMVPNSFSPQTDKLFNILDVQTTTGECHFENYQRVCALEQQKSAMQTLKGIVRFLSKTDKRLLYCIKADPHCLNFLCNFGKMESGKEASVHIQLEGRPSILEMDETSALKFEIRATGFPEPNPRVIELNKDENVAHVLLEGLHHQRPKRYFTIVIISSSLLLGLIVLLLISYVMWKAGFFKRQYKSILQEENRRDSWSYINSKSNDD
Sequence (P05556 21-798): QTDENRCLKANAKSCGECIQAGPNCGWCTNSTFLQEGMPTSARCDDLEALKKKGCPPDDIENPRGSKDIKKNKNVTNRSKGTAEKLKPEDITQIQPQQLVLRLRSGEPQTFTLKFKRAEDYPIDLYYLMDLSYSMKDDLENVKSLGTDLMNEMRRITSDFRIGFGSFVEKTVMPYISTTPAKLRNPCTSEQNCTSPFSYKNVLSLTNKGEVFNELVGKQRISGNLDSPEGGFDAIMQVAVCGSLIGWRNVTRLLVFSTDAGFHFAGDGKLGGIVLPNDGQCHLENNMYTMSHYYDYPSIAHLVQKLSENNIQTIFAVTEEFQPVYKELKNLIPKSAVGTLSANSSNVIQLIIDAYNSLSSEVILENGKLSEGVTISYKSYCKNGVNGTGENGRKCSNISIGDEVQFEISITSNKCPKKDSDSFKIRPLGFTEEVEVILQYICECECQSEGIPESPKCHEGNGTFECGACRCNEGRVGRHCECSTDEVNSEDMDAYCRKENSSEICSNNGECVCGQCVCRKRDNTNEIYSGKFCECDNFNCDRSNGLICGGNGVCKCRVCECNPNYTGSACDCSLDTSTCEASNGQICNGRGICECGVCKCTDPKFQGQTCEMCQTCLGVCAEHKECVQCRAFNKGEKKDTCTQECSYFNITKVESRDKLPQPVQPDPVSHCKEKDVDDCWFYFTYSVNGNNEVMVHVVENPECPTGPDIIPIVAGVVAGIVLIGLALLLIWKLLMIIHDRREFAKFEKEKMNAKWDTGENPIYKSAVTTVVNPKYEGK
Assay: Ramos Cell Adhesion Assay (α4β1 Mediated Adhesion/VCAM-1)
Format: cell-based
Conditions: Ramos cell adhesion to hVCAM-1; read-out: α4β1 IC50
pIC50: −log10 of the molar value.

Q) Suppose we examine the compound CCn1ncc(N2CCOCC2)c(-c2ccc(C[C@H](NC(=O)c3c(Cl)cccc3Cl)C(=O)O)cc2)c1=O ; what pIC50 value has been reported?
A) < 6.00

Q) Given the entry COc1cnn(C)c(=O)c1-c1ccc(C[C@H](NC(=O)OC23CC4CC(CC(C4)C2)C3)C(=O)O)cc1 , report its measured pIC50.
A) < 5.30

Q) Entry COc1cnn(C)c(=O)c1-c1ccc(CC(NC(=O)C2CCCN2)C(=O)O)cc1 (mixture of isomers) : reported pIC50 = ?
A) < 5.30

Q) Look up pIC50: Cn1ncc(-n2nccc2-c2cccs2)c(-c2ccc(C[C@H](NC(=O)c3c(Cl)cccc3Cl)C(=O)O)cc2)c1=O
A) < 5.30

* * *

Target: α4β1 (Homo sapiens, UniProt P05556+P13612)
Construct: Ramos Cell Adhesion Assay (α4β1 Mediated Adhesion/VCAM-1); endogenous in cells; host or cells: Ramos cells
Assay: Ramos Cell Adhesion Assay (α4β1 Mediated Adhesion/VCAM-1)
Type: cell-based
Conditions: Ramos cell adhesion to hVCAM-1; read-out: α4β1 IC50
pIC50: −log10 of the molar value.
pIC50 by entry:

Q) Need pIC50 of COc1cnn(C)c(=O)c1-c1ccc(C[C@H](NC(=O)OCc2cccs2)C(=O)O)cc1 , thanks.
A) < 5.30

Q) Form field: reported pIC50 of COC(=O)[C@H](Cc1ccc(-c2c(OC)cnn(C)c2=O)cc1)NC(=O)[C@@H]1C2CCC(CC2)N1C(=O)CCc1ccccc1
A) < 6.00

Q) I am curious: what pIC50 value has been reported for COc1cnn(C)c(=O)c1-c1ccc(C[C@H](NC(=O)[C@H](O)C(C)C)C(=O)O)cc1 ?
A) < 6.00

* * *

Target: human α4β7 integrin (Homo sapiens, UniProt P13612+P26010)
Construct: expressed in transfected cells; host or cells: K562 cells, stably transfected
Sequence (P13612 34-1032): as the sequence (P13612 34-1032) above
Sequence (P26010 20-798): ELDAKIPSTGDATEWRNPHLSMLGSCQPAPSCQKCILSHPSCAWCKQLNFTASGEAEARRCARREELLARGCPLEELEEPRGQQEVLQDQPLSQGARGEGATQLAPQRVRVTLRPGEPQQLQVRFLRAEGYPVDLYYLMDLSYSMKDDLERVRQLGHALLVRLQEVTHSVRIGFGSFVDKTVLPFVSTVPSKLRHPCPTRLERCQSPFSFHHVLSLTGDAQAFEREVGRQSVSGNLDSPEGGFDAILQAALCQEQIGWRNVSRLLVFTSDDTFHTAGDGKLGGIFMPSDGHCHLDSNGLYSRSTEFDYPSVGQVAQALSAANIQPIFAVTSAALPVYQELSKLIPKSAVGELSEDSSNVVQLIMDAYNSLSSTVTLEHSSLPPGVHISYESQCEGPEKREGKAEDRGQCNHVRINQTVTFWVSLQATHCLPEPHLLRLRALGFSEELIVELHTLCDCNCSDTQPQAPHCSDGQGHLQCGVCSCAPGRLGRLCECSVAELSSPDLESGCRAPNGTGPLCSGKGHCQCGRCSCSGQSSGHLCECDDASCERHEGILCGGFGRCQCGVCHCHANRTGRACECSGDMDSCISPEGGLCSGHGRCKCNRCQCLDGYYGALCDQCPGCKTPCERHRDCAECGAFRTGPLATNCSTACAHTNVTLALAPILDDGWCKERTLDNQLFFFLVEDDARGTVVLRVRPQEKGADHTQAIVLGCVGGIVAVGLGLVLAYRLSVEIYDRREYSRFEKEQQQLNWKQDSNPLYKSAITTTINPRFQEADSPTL
Assay: α4β7-K562 Cell Adhesion Assay (α4β7 Mediated Adhesion/MAdCAM-1)
Type: cell-based
Conditions: α4β7-K562 cell adhesion to hMAdCAM-1; read-out: α4β7 IC50
PROPERTY: IC50 (µM)

• CNC(C)(C)C(=O)N[C@@H](Cc1ccc(-c2c(OC)cnn(C)c2=O)cc1)C(=O)O = 0.38

1. Cn1ncc(OCCO)c(-c2ccc(C[C@H](NC(=O)c3c(Cl)cccc3Cl)C(=O)O)cc2)c1=O
2. CNc1cnn(C)c(=O)c1-c1ccc(C[C@H](NC(=O)c2c(Cl)cccc2Cl)C(=O)O)cc1
3. CCOC(=O)Cc1cnn(C)c(=O)c1-c1ccc(C[C@H](NC(=O)c2c(Cl)cccc2Cl)C(=O)O)cc1
Q) Arrange these 3 compounds in increasing order of IC50. // list labels; follow requested order
A) 1, 3, 2

* * *

Target: α4β1 (Homo sapiens, UniProt P05556+P13612)
Construct: Ramos Cell Adhesion Assay (α4β1 Mediated Adhesion/VCAM-1); endogenous in cells; host or cells: Ramos cells
Assay: Ramos Cell Adhesion Assay (α4β1 Mediated Adhesion/VCAM-1)
Format: cell-based
Conditions: Ramos cell adhesion to hVCAM-1; read-out: α4β1 IC50
Below, each of the compounds is paired with its reported IC50 value.

* COc1cnn(CCN2CCOCC2)c(=O)c1-c1ccc(C[C@H](NC(=O)[C@H](NC(=O)OC(C)(C)C)[C@H](C)O)C(=O)O)cc1 | > 5 µM
* COc1cnn(C)c(=O)c1-c1ccc(C[C@H](NC(=O)C2(NC(C)C)CC2)C(=O)O)cc1 [Cpd 3] | > 5 µM
* O=C(N[C@@H](Cc1ccc(-c2c(-n3nccc3-c3cccs3)cnn(CCO)c2=O)cc1)C(=O)O)c1c(Cl)cccc1Cl | > 5 µM
* COc1cnn(C)c(=O)c1-c1ccc(C[C@H](NC(=O)C23CCC(CC2)CN3C)C(=O)O)cc1 | > 1 µM
* COc1cnn(C)c(=O)c1-c1ccc(C[C@H](NC(=O)c2cc(F)ccc2Cl)C(=O)OCCO)cc1 | > 5 µM
* COc1cnn(C)c(=O)c1-c1ccc(C[C@H](NC(=O)c2c(Cl)cccc2Cl)C(=O)OCC(C)(C)C)cc1 | > 5 µM
* COc1cnn(C)c(=O)c1-c1ccc(CC(NC(=O)C(NC(=O)OC(C)(C)C)C(C)C)C(=O)O)cc1 (mixture of isomers) | > 5 µM
* O=C(N[C@@H](Cc1ccc(-c2c(OC3CCC3)cnn(CCO)c2=O)cc1)C(=O)O)c1c(Cl)cccc1Cl | 0.269 µM
* Cn1ncc(CC(=O)O)c(-c2ccc(C[C@H](NC(=O)c3c(Cl)cccc3Cl)C(=O)O)cc2)c1=O | > 5 µM
* COc1cnn(C)c(=O)c1-c1ccc(C[C@H](NC(=O)c2ccc[nH]2)C(=O)O)cc1 | > 5 µM

Q) If you can, please state the reported IC50 value of COc1cnn(C)c(=O)c1-c1ccc(C[C@H](NC(=O)c2cccn(C)c2=O)C(=O)O)cc1 .
A) > 5 µM

Q) Which IC50 is listed for COc1cnn(C)c(=O)c1-c1ccc(C[C@H](NC(=O)OCc2c(C)cc(C)cc2C)C(=O)O)cc1 ?
A) > 5 µM

Q) So what does the record say about IC50 for COc1cnn(CCO)c(=O)c1-c1ccc(C[C@@H](CO)NC(=O)c2c(Cl)cccc2Cl)cc1 ?
A) > 5 µM

Q) # query: IC50 of entry Nc1cnn(-c2ccccc2)c(=O)c1-c1ccc(C[C@H](NC(=O)c2c(Cl)cccc2Cl)C(=O)O)cc1
A) > 1 µM

Q) Can you look up the measured IC50 of COc1cnn(C)c(=O)c1-c1ccc(C[C@H](NC(=O)C2(C(N)=O)CC2)C(=O)O)cc1 for me?
A) > 5 µM

Q) For COc1cnn(C)c(=O)c1-c1ccc(C[C@H](NC(=O)c2n[nH]c3ccccc23)C(=O)O)cc1 , what is its reported IC50?
A) > 5 µM

Q) I am curious: what IC50 value has been reported for COc1cnn(C)c(=O)c1-c1ccc(C[C@H](NC(=O)O[C@H](C)c2ccccc2)C(=O)O)cc1 ?
A) > 5 µM

Q) Please look up its IC50: CC(C)COC(=O)N[C@@H](Cc1ccc(-c2c(OCC(C)C)cnn(C)c2=O)cc1)C(=O)O
A) > 5 µM

* * *

Measured IC50, listed per entry for reference.
Molecular target: α4β1 (Homo sapiens, UniProt P05556+P13612)
Construct: Ramos Cell Adhesion Assay (α4β1 Mediated Adhesion/VCAM-1); endogenous in cells; host or cells: Ramos cells
Test: Ramos Cell Adhesion Assay (α4β1 Mediated Adhesion/VCAM-1)
Format: cell-based
Conditions: Ramos cell adhesion to hVCAM-1; read-out: α4β1 IC50

* COc1cnn(C)c(=O)c1-c1ccc(C[C@H](NC(=O)CN(C)C)C(=O)O)cc1 | > 5 µM
* CCOC(=O)[C@H](Cc1ccc(-c2c(OC)cnn(C)c2=O)cc1)NC(=O)c1c(Cl)cccc1Cl | > 5 µM
* COc1cnn(C)c(=O)c1-c1ccc(C[C@H](NC(=O)c2cc(=O)[nH]c(=O)[nH]2)C(=O)O)cc1 | > 5 µM
* COC(=O)[C@H](Cc1ccc(-c2c(OC)cnn(C)c2=O)cc1)NC(=O)c1c(Cl)cccc1Cl | > 5 µM
* COc1cnn(C)c(=O)c1-c1ccc(C[C@H]2C(=O)OCN2C(=O)c2c(Cl)cccc2Cl)cc1 | > 5 µM
* CNC(C)(C)C(=O)N[C@@H](Cc1ccc(-c2c(OC)cnn(C)c2=O)cc1)C(=O)O | > 5 µM

Okay, now this molecule:
Q) Suppose we examine the molecule COc1cnn(C)c(=O)c1-c1ccc(C[C@H](NC(=O)C(N)C(C)C)C(=O)O)cc1 (stereo partly shown) ; what IC50 value has been reported?
A) > 5 µM

* * *

Target: α4β1 (Homo sapiens, UniProt P05556+P13612)
Construct: Ramos Cell Adhesion Assay (α4β1 Mediated Adhesion/VCAM-1); endogenous in cells; host or cells: Ramos cells
Assay: Ramos Cell Adhesion Assay (α4β1 Mediated Adhesion/VCAM-1)
Assay type: cell-based
Details: Ramos cell adhesion to hVCAM-1; read-out: α4β1 IC50
PROPERTY: IC50 (µM)

Reference set (2 entries):
* Cn1ncc(OCCO)c(-c2ccc(C[C@H](NC(=O)c3c(Cl)cccc3Cl)C(=O)O)cc2)c1=O | 0.303
* COc1cnn(C)c(=O)c1-c1ccc(C[C@H](NC(=O)C23CCC(CC2)CN3C(=O)CCc2cnc[nH]2)C(=O)O)cc1 | 0.142

P. COc1cnn(-c2ccccc2)c(=O)c1-c1ccc(C[C@H](NC(=O)c2c(Cl)cccc2Cl)C(=O)O)cc1
Q. Cn1ncc(N2CCCC2)c(-c2ccc(C[C@H](NC(=O)c3c(Cl)cccc3Cl)C(=O)O)cc2)c1=O
R. COc1cnn(C)c(=O)c1-c1ccc(C[C@H](NC(=O)[C@@H](C)N(C)C(=O)Cc2ccsc2)C(=O)O)cc1
S. O=C(N[C@@H](Cc1ccc(-c2c(-n3cc(Br)cn3)cnn(CCO)c2=O)cc1)C(=O)O)c1c(Cl)cccc1Cl
Q) Ranking field: IC50; order: falling. # the answer lists labels in the order requested
A) P, S, R, Q
(P: 3.86 µM, S: 1.32 µM, R: 0.229 µM, Q: 0.113 µM)
